Tested on: KALS-1 (Glioblastoma);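 further: after 72 h of two-drug dosing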
assay.summary: Bliss excess, mean over the matrix (fraction); higher = more synergy
measure: Bliss excess
Note: the reply should be a number with no unit written.

Tell me the measured Bliss excess of CN(C)CCCOc1ccc(-c2ccc3ncc4c(c3c2)n(C2CCOCC2)c(=O)n4C)cn1 [AZD0156] + C[C@@H]1COCCN1C2=NC(=NC(=C2)C3(CC3)[S@](=N)(=O)C)C4=C5C=CNC5=NC=C4 [AZD6738] (first compound max 1 µM, 7x7, partner max 10 µM) , please.
-0.0032

Tell me the measured Bliss excess of N#Cc1cnc(Nc2cc(NC[C@H]3CNCCO3)c(C(F)(F)F)cn2)cn1 [SRA737] + C=CCn1c(=O)c2cnc(Nc3ccc(N4CCN(C)CC4)cc3)nc2n1-c1cccc(C(C)(C)O)n1 [AZD1775] (first compound max 10 µM, partner max 1 µM) , please.
0.0439

Tell me the measured Bliss excess of C=CCn1c(=O)c2cnc(Nc3ccc(N4CCN(C)CC4)cc3)nc2n1-c1cccc(C(C)(C)O)n1 [AZD1775] + Nc1ccn([C@@H]2O[C@H](CO)[C@@H](O)C2(F)F)c(=O)n1 [Gemcitabine] (first compound max 1 µM, partner max 0.3 µM) , please.
0.0299

Tell me the measured Bliss excess of CN(C)CCCOc1ccc(-c2ccc3ncc4c(c3c2)n(C2CCOCC2)c(=O)n4C)cn1 [AZD0156] + O=C(c1cc(Cc2n[nH]c(=O)c3ccccc23)ccc1F)N1CCN(C(=O)C2CC2)CC1 [Olaparib] (first compound max 3 µM, partner max 3 µM) , please.
-0.0235
